target: CaSho1; assay: SPOT peptide array binding signal intensity (averaged, normalized) (arbitrary units (background-subtracted, floor 0; scale differs between SH3 domains)); higher = stronger binding of the SH3 domain to the peptide
Experimental Readout: SPOT peptide array binding signal intensity

>>> val("RRGPAPPPPPRASRP")
18.5
>>> val("TKRKRPARLIFYDSK")
605
>>> val("IFLRISINFPLNYPN")
2060
>>> val("VRVKKRPLIRPLNSS")
370
>>> val("VRTRRRPPPPPIPST")
25.5
>>> val("LFMKGTPEFPKSGFS")
1200
>>> val("RSKRLFPVRPMATAH")
544
>>> val("GSKSGPPPRPKKPST")
29.5
>>> val("RRSKSLPTTPGIRSG")
1030
>>> val("NPLPKEPRLPKRKVA")
60
>>> val("RNNRPVPPPPPMRTT")
17
>>> val("RRARRQMGIPTISQV")
758
>>> val("NLDRSKISLPDFDDE")
74.5
>>> val("PLQSKIPMLPSRRTM")
400

Recorded values, source the supplement of paper PMC4466140.
